Listed below: Slope Assay Score values for each entry.
Assay system: preformed human β-2 microglobulin fibrils (Homo sapiens)
Sequence (P61769 21-119): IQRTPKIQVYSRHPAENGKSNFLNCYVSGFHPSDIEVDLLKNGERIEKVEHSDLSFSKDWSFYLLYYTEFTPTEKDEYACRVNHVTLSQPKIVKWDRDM
Experiment description: Thioflavin T fluorescence high-throughput screen (slope assay score) for disruption of preformed fibrils
Type: biochemical
Applied conditions: slope of relative ThT fluorescence versus time; more negative = stronger disruption
Where a name gives a salt, the structure may show the parent alone.

The following compounds have reported results that may help.
# Compound, Assay system, Slope Assay Score
rows = [
    ("C=C1c2c(Cl)ccc(O)c2C(O)=C2C(=O)[C@]3(O)C(=O)/C(=C(\\N)O)C(=O)[C@@H](N(C)C)[C@@H]3[C@@H](O)[C@H]12 [Meclocycline sulfosalicylate]", "preformed human β-2 microglobulin fibrils (Homo sapiens)", "−.066"),
    ("COc1cc(C)c2c(c1C=O)Oc1c(c(C)c(O)c3c1C(O)OC3=O)OC2=O (stereo not shown) [Stictic Acid]", "preformed human β-2 microglobulin fibrils (Homo sapiens)", "−.098"),
    ("NC(CO)C(=O)NNCc1ccc(O)c(O)c1O (stereo not shown) [Compound L18, benserazide hydrochloride]", "preformed human β-2 microglobulin fibrils (Homo sapiens)", "−.066"),
    ("Cc1cc(O)c(C=O)c(O)c1C(=O)O [Haematommic Acid]", "preformed human β-2 microglobulin fibrils (Homo sapiens)", "−.076"),
    ("CN1CCc2cccc3c2[C@H]1Cc1ccc(O)c(O)c1-3 [Apomorphine hydrochloride hemihydrate]", "preformed human β-2 microglobulin fibrils (Homo sapiens)", "−.061"),
    ("COc1cc(NC(C)CCCN)c2ncccc2c1 (stereo not shown) [Primaquine diphosphate]", "preformed human β-2 microglobulin fibrils (Homo sapiens)", "−.058"),
]

Input line: Recorded Slope Assay Score of O=C(O[C@@H]1Cc2c(O)cc(O)cc2O[C@@H]1c1cc(O)c(O)c(O)c1)c1cc(O)c(O)c(O)c1 [Compound 22, Epigallocatechin gallate] , please.
Output line: −.087
